Please provide measured inhibition at 10 µM for the entries that follow.
Molecular target: hERG (KCNH2) (Homo sapiens, UniProt Q12809)
Sequence (Q12809 whole entry): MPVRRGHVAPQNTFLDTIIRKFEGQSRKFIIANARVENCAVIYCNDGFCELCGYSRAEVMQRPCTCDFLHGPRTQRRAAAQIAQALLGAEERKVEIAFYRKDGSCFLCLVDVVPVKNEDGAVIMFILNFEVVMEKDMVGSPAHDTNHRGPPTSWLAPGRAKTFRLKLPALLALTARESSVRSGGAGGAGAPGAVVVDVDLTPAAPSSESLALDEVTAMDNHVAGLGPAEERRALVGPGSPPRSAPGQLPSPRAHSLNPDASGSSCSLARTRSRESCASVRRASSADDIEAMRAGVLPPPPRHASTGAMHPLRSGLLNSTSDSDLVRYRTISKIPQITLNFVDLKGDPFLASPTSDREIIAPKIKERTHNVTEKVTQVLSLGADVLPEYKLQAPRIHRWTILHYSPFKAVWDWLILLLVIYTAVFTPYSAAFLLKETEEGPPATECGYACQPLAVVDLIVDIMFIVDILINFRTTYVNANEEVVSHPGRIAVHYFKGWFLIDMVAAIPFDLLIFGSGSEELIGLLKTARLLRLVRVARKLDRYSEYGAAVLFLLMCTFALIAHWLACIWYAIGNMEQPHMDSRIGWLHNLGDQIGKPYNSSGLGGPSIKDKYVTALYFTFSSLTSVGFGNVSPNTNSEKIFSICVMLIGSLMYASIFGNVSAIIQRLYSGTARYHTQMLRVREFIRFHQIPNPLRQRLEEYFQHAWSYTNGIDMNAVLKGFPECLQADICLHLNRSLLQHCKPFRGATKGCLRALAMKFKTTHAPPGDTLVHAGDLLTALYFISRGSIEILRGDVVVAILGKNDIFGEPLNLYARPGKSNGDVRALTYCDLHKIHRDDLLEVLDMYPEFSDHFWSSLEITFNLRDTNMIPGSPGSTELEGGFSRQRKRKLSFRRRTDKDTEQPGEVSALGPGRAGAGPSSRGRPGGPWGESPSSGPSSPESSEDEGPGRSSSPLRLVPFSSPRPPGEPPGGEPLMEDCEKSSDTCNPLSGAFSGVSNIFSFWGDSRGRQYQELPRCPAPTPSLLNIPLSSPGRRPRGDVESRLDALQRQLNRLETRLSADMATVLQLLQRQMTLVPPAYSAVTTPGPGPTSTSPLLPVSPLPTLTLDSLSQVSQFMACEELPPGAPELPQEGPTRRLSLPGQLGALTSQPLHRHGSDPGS
Experiment: Inhibition of human ERG at 10 uM by patch clamp assay relative to control

Examples from the recorded data:
C[C@@]12Cc3[nH]nc(C(=O)Nc4cnn([C@H](c5ccccc5)C5CCS(=O)(=O)CC5)c4)c3C[C@@H]1C2    34%
C[C@@]12Cc3[nH]nc(C(=O)Nc4cnn([C@H](c5ccccc5)[C@H]5CCCCS5(=O)=O)c4)c3C[C@@H]1C2(F)F    6.8%
CC1(C)CCc2c(C(=O)Nc3cnn([C@H](c4ccccc4)C4CC[S+]([O-])CC4)c3)n[nH]c2C1 (some centres undefined)    3.6%

(Q) Checklist item: inhibition at 10 µM tested on hERG (KCNH2) (Homo sapiens, UniProt Q12809), entry CN(C)CC[C@@H](c1ccccc1)n1cc(NC(=O)c2n[nH]c3c2CCC(C)(C)C3)cn1 , value?
(A) 88%

----------
Test: physchem
Conditions: aqueous phosphate buffer, pH 7.4, Kinetic_solubility
Description: Kinetic solubility of the compound in aqueous phosphate buffer at pH 7.4 after 24 hrs by HPLC/CLND method
// NO strictly below 10 µM in solubility kinetic at 24 h; YES otherwise

A selection of reference data follows.
CC1(C)CCc2c(C(=O)Nc3cnn([C@@H](CS(C)(=O)=O)c4ccccc4)c3)n[nH]c2C1    NO
CC1(C)CCc2c(C(=O)Nc3cnn([C@H](c4ccccc4)C4CCS(=O)(=O)CC4)c3)n[nH]c2C1    NO

(Q) Item C[C@@]12Cc3[nH]nc(C(=O)Nc4cnn([C@H](c5ccccc5)[C@H]5CCCCS5(=O)=O)c4)c3C[C@@H]1C2(F)F with solubility kinetic at 24 h of 10 µM or above?
(A) NO

(Q) What would you report for CC1(C)CCc2c(C(=O)Nc3cnn([C@H](c4ccccc4)C4CCCS(=O)(=O)C4)c3)n[nH]c2C1 (some centres not stated) ?
(A) YES

(Q) What would you report for CC1(C)CCc2c(C(=O)Nc3cnn([C@H](c4ccccc4)C4CC[S+]([O-])CC4)c3)n[nH]c2C1 (some centres not stated) ?
(A) YES

(Q) What would you report for C[C@@]12Cc3[nH]nc(C(=O)Nc4cnn([C@H](c5ccccc5)C5CCS(=O)(=O)CC5)c4)c3C[C@@H]1C2 ?
(A) NO

----------
Target: Tyrosine-protein kinase Lck (Homo sapiens)
Sequence (P06239 whole entry): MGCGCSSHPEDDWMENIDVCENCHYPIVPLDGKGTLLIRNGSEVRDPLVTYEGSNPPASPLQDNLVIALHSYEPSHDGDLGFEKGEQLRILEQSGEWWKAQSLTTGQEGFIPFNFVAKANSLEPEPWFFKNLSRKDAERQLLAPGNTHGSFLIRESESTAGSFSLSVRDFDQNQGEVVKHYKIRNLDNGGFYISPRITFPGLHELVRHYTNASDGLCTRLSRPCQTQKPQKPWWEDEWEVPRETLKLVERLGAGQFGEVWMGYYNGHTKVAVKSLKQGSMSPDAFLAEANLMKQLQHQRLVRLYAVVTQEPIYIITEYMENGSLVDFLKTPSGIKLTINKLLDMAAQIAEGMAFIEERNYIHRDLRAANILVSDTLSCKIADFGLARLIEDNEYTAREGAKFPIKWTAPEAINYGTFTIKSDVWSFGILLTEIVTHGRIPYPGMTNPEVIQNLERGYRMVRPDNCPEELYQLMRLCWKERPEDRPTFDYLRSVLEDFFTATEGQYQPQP
metric name: pKi
One number for each entry, as −log10 of the molar value.

(Q) For the compound CC12Cc3[nH]nc(C(=O)Nc4cnn(Cc5ccccc5)c4)c3CC1C2 (stereo unspecified) , what pKi is on record?
(A) 5.85
